- Measured on: T1, recombinant human PD-L1 (amino acids 19-239 of NP_054862.1) with a C-terminal myc-myc-hexahistidine tag (human)
- T1 construct: also called hPD-L1-MMH; hPD-L1-MMH Monomer
- Measurement description: SPR (Biacore), mAb captured, 37C
Parameter Kd: see the listing below.
Kindly provide the numeric value in nM only, without the unit symbol.

Below, 4 binders whose answers are already recorded.
Binder	Measurement unit	Kd
H2aM8310N (antibody, mouse IgG2, V domains shown, also called H2M8310N) VH: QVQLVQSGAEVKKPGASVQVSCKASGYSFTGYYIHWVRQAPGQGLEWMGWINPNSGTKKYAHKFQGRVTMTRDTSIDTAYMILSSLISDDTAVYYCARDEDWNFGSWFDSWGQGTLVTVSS VL: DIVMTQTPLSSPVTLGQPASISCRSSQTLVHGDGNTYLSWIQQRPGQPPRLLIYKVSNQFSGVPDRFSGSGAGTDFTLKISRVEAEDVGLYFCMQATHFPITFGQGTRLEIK	nM	9.7
H2aM8317N (antibody, mouse IgG2, V domains shown, also called H2M8317N) VH: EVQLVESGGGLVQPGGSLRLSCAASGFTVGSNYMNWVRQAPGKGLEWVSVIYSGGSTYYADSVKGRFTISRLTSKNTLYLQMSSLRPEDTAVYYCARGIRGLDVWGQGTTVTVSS VL: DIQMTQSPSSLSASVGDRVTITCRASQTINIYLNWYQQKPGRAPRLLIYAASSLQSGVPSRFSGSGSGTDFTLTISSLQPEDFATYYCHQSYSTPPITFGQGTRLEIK	nM	647
H2aM8323N (antibody, mouse IgG2, V domains shown, also called H2M8323N) VH: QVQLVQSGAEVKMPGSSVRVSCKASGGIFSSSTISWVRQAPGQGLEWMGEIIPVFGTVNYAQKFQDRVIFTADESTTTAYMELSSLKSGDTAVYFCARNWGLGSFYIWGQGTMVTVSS VL: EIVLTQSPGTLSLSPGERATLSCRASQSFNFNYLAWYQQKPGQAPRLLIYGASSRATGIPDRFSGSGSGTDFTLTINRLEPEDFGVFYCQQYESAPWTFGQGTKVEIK	nM	0.497
H1H9329P (antibody, human IgG1, V domains shown) VH: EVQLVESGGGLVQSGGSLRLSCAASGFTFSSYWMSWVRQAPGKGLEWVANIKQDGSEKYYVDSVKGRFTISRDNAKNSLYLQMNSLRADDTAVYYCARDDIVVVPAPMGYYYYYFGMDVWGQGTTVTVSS VL: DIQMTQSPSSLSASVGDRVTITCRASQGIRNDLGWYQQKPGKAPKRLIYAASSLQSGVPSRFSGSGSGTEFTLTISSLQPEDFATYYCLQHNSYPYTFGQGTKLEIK	nM	117

Lab note: next binder to report on.
// returns reported Kd for input H1H9336P (antibody, human IgG1, V domains shown) VH: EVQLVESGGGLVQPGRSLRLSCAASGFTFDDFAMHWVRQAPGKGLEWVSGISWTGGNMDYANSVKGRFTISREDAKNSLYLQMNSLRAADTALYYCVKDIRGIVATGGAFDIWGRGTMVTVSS VL: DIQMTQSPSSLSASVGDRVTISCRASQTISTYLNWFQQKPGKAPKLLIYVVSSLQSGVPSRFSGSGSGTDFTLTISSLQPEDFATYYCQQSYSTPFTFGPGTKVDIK 0.733
